List of CTG-3D luminescence at 96 h values.
Test system: HCI-017.E2 (organoid from an ER-positive breast cancer xenograft)
Test: CTG-3D luminescence at 96 h relative to day-0 seeding control (ratio to day 0); higher = more growth / less cytotoxicity; PDxO 3D drug screen, 96 h, CTG-3D normalised to day-0 seeding control.
Settings: 100 µM

smiles data	system tested	CTG-3D luminescence at 96 h
O=C(O)C1(C(=O)O)CCC1.[NH2-].[NH2-].[Pt+2]	HCI-017.E2	1.9
CC[C@H](NC(=O)[C@H](C)NC)C(=O)N1C[C@@H](O)C[C@H]1Cc1c(-c2[nH]c3cc(F)ccc3c2C[C@@H]2C[C@H](O)CN2C(=O)[C@H](CC)NC(=O)[C@H](C)NC)[nH]c2cc(F)ccc12	HCI-017.E2	1.51
O=C(c1ccc(F)c(F)c1Nc1ccc(I)cc1F)N1CC(O)([C@@H]2CCCCN2)C1	HCI-017.E2	0.00898
CCN(c1cc(C#CCN2CCOCC2)cc(C(=O)NCc2c(C)cc(C)[nH]c2=O)c1C)[C@H]1CC[C@H](N(C)CCOC)CC1	HCI-017.E2	1.5
NC(=O)Nc1cc(-c2cccc(F)c2)sc1C(=O)N[C@H]1CCCNC1	HCI-017.E2	0.00946
CS(=O)(=O)c1ccc(C(=O)Nc2ccc(Cl)c(-c3ccccn3)c2)c(Cl)c1	HCI-017.E2	0.824
C=CC(=O)N1CCC[C@@H](n2nc(-c3ccc(Oc4ccccc4)cc3)c3c(N)ncnc32)C1	HCI-017.E2	0.00316
Cc1cc(Nc2ncnc3ccc(NC4=NC(C)(C)CO4)cc23)ccc1Oc1ccn2ncnc2c1	HCI-017.E2	0.0205
CNC(=O)c1cccc(-c2ccc3c(N4CCOC[C@@H]4C)nc(N4CCOC[C@@H]4C)nc3n2)c1	HCI-017.E2	0.418
